Assignment: determine reported ELISA OD of antibodies to be tested (2 nM) for the given binders.
# target-entity: T1, human TNFR2 (Novoprotein, Catalog No. C830) (human, UniProt P20333 23-257, limits assumed)
# T1 construct: construct not described; also called TNFR2 protein
# T1 sequence (looked up): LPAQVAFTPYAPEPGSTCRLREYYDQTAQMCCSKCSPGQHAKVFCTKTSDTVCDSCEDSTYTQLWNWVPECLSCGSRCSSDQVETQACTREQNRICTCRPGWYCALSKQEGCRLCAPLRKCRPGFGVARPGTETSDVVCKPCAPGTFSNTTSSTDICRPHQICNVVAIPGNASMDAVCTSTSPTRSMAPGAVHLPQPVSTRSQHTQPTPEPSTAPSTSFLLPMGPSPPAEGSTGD
# assay-notes: blocking ELISA, TNFα-biotin on coated human TNFR2, antibody 2 nM

Enquiry: Please report ELISA OD of antibodies to be tested (2 nM) for the following binder: TNFR2 antibody #219 (antibody, V domains shown) VH: EVQLQESGAELVRPGASVKLSCKASGYSFTNYWMNWVKQRPGQGLEWIGMIHPSDTETRLNQNFKDKATLTVDKSSSTSYMQLSSPTSEDSAVYYCARGEGLGAARSVSMDYWGQGTTVTVSS VL: DILMTQSPSSLSASLGDRVTISCRASQDISNYLNWYQQKPDGTVKVLIYYTAILHSGVPSRFSGSGSGTDYSLTISNLEQEDIATYFCQQGNTLPWTFGGGTKLEIK
Return: 0.756 OD

Enquiry: Please report ELISA OD of antibodies to be tested (2 nM) for the following binder: TNFR2 antibody #133 (antibody, V domains shown) VH: EVQLQESGAELVRSGASVKLSCTASGFNIKDYYIQWVKQRPEQGLEWIGWIDPESGNTKYAPKFQDKATMTADTSSNTAYLQLSGLTSEDSAVYYCNAYYDYDGSMDYWGQGTTVTVSS VL: DIVMTQSPLSLPVSLGDQASISCRSSQSLVHSNGNTYLHWYLQKPGQSPKLLIYKVSNRFSGVPDRFSGSGSGTDFTLKISRVETDDLGVYFCSQSTHVPTWTFGGGTKLEIK
Return: 2.11 OD
